// provenance: ChEMBL document CHEMBL1132737

Tested on: Plasmodium berghei
Experiment: Parasitemia at day 15 after 50 mg/kg/day dose over 4 days
Format: functional
Please provide measured Parasitaemia for the entries that follow.
Answers are plain numbers, in %.

Below is a list of molecules. For each, state its recorded Parasitaemia.
1. COc1ccc(/C=C/C(=O)c2ccc(OCCCCCCOc3ccc(C(=O)/C=C/c4ccc(OC)c(OC)c4)cc3)cc2)cc1OC
2. COc1ccc(/C=C/C(=O)c2ccc(OCCCCOc3ccc(C(=O)/C=C/c4ccc(OC)cc4OC)cc3)cc2)c(OC)c1
3. COc1ccc(/C=C/C(=O)c2ccc(OCCCCOc3ccc(C(=O)/C=C/c4ccc(OC)c(OC)c4)cc3)cc2)cc1OC
4. COc1cccc(/C=C/C(=O)c2ccc(OCCCOc3ccc(C(=O)/C=C/c4cccc(OC)c4)cc3)cc2)c1

1. 15
2. 8.3
3. 13.2
4. 13
